meta.source: the supplement of paper PMC8728848

For each entry below, report its glycan array binding signal (z-score) value.
tested_on: GlcNAc(b1-3)Gal(b1-4)GlcNAc(b1-2)Man(a1-3)[GlcNAc(b1-3)Gal(b1-4)GlcNAc(b1-2)Man(a1-6)]Man(b1-4)GlcNAc(b1-4)GlcNAc
experiment_summary: glycan array binding signal (z-score within array); higher = stronger binding
condition_info: glycan notation: IUPAC condensed, linker removed
The entries come from a sample that favours the strongest signals as a whole.
Numbers only.

RobpsCRA (Robinia pseudoacacia) (protein) IKGGYWYSGSGLAVSDINPSHFTHLFCAFADLDPNTNKLTISSSNAAAFSTFTQTVRAKNPSVKTLLSIGGGGGRALAAVFANMASQASRRKSFIDSSIQLARRNNFHGLDLDWEYPSSDIDKTNFASLIREWRAAVATESSTSGTPALLLSAAVGGSDQITPLKYYPGEAIANNLDWVNVMTYDLYTSDSYPTLTQPPAPLFYPRGIFSADEGITKWIQSGVPESKLALGLPFYGFKWRLSDPNNHGLFAPATQGLGAVKYKDIVNTGGQVEFDSTYVTNYCFKGTDWYGYDDTQSISAKVAYAKQRGLFGYFAWHIEQDSNWALS : -0.142
DrGRIFIN (Danio rerio), Q6DGJ1 (protein) MTLRFEASCPDGLCPGWSVILKGETPPEASKFEINFLCDRDDRVAFHFNPRFTESDIICNSYMANRWGQEERCNHFPLGVEEPFQIEIYSDNDHFHVYIDKAKVMQYKHRVEDLKTITKLQVVNDVKISSLEITKKLFY : -0.132

Attention now turns to another entry.
Q: Give glycan array binding signal (z-score) for BTL (Bryothamnion triquetrum) (protein) ADPICGSSGYSCTTPAILTPKSPGSFPSGYSKVIVTGVGGSYSVYIHRPDGFKVYKASEGGCASFGSYSGGGNSEVGKYGSGGTVVAVACK
A: -0.193
